Each entry below carries its recorded TGI.
tested on: OVCAR-8 ovarian; assay: NCI tumour cell line growth inhibition, 48 h

Example cases with answers are listed next.
compound	assay target	TGI
COc1cc([C@@H]2c3cc4c(cc3[C@H](OC3OC5COC(C(C)C)OC5C(O)C3O)C3COC(=O)[C@@H]32)OCO4)cc(OC)c1O (some centres not stated)	OVCAR-8 ovarian	25.9 µM
CCCCN(CCCC)C(=O)C(=O)CC(=O)c1ccc(Br)cc1	OVCAR-8 ovarian	> 100 µM
COc1ccc(/C(=C/c2cc(OC)c(OC)c(OC)c2)[N+](=O)[O-])cc1	OVCAR-8 ovarian	8.12 µM
CC(Cl)(/C=C/Cl)C(Cl)/C=C/C(Cl)(CCl)CBr (configuration not stated)	OVCAR-8 ovarian	13.2 µM
NCC(O)CNCC/C=C\C/C=C\C/C=C\C/C=C\C/C=C\C/C=C\CCCCC/C=C\CCNCC(O)CN (configuration not stated)	OVCAR-8 ovarian	3.21 µM
CC(=O)Oc1cc(OC(C)=O)c2c(=O)c3ccccc3n(C)c2c1	OVCAR-8 ovarian	64.4 µM
O=C(NCCN1C(=O)CN=C(c2ccc(Cl)cc2)c2cc(Cl)ccc21)OCc1ccccc1	OVCAR-8 ovarian	38.3 µM
O=C1c2cc3c(cc2-c2c1c1cc(Cl)c(Cl)cc1c(=O)n2CCCn1ccnc1)OCO3	OVCAR-8 ovarian	> 100 µM

IN: May I ask what TGI has been recorded for S=c1[nH]nc(COc2ccc(Cl)cc2)o1 ?
OUT: > 100 µM

IN: May I ask what TGI has been recorded for N#Cc1cccc(C2ON=C(c3ccc([N+](=O)[O-])cc3)N2C23CC4CC(CC(C4)C2)C3)c1 (configuration not stated) ?
OUT: > 100 µM

IN: May I ask what TGI has been recorded for Cc1ccc(/C=C2\CN(C)CC3C(c4ccc(C)cc4)=C(C#N)C(=O)NC23)cc1 (configuration not stated) ?
OUT: > 50 µM

IN: May I ask what TGI has been recorded for Cc1cccc(/C=N/NC(=S)NCc2ccccn2)n1 ?
OUT: > 100 µM

IN: May I ask what TGI has been recorded for CC(=O)OC1/C(=C/c2ccc([N+](=O)[O-])cc2)C[C@H]2[C@@H]3CC=C4C[C@@H](OC(C)=O)CC[C@]4(C)[C@H]3CC[C@]12C (some centres not stated) ?
OUT: > 100 µM

IN: May I ask what TGI has been recorded for O=C1C(C(O)(C(F)(F)Cl)C(F)(F)Cl)CCC1C(O)(C(F)(F)Cl)C(F)(F)Cl (configuration not stated) ?
OUT: > 10 µM

IN: May I ask what TGI has been recorded for COc1cc(N(CCC#N)CCC#N)ccc1/C(N=Nc1ccc(C)cc1)=N/NC(=O)c1cc(Br)ccc1O ?
OUT: 88 µM
